Cited source for all entries: patent US10519134B2

Target: MAGL (Mus musculus, UniProt O35678)
Construct: Proteomes (mouse brain membrane fraction or cell lysates); from tissue; host or cells: mouse brain membrane fraction (or cell lysates)
Sequence (O35678 whole entry): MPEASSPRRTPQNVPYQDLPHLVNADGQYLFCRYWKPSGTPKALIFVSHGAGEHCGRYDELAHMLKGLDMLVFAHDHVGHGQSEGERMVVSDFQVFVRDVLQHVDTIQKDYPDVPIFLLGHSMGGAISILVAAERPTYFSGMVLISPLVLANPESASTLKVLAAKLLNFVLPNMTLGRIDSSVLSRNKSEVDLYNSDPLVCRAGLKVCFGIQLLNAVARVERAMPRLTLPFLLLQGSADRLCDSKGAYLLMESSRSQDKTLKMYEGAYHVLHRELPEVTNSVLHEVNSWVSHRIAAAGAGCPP
Test: In vitro competitive activity-based protein profiling (mouse), MAGL gel band
Type: biochemical
Conditions: read-out: MAGL % inh. 1 μM
Procedure: In Vitro Competitive Activity-Based Protein Profiling (Mouse). Proteomes (mouse brain membrane fraction or cell lysates) (50 μL, 1.0 mg/mL total protein concentration) were preincubated with varying concentrations of inhibitors at 37° C. […] Following gel imaging, serine hydrolase activity was determined by measuring fluorescent intensity of gel bands corresponding to MAGL, ABHD6, and FAAH, using ImageJ 1.43u software.
Recorded inhibition at 1 µM, one value per entry.

- Molecule: "CS(=O)(=O)Nc1ccn(C(=O)N2CCN(Cc3cc(N4CCOCC4)ccc3C(F)(F)F)CC2)n1 [Example 181]"
  inhibition at 1 µM: "50 to 75%"
- Molecule: "CC(=O)Nc1ccn(C(=O)N2CCN(Cc3ccc(Cl)cc3N3CCC(F)(F)CC3)CC2)n1 [Example 57]"
  inhibition at 1 µM: "≥ 75%"
- Molecule: "CS(=O)(=O)Nc1ccn(C(=O)N2CCN(Cc3ccc(Cl)c(-c4nccs4)c3)CC2)n1 [Example 221]"
  inhibition at 1 µM: "≥ 75%"
- Molecule: "CS(=O)(=O)Nc1ccn(C(=O)N2CCN(Cc3cc(C(F)(F)F)cc(C(F)(F)F)c3)CC2)n1 [Example 177]"
  inhibition at 1 µM: "≥ 75%"
- Molecule: "CS(=O)(=O)Nc1ccn(C(=O)N2CCN(Cc3ccc(C(F)(F)F)cc3-c3nccs3)CC2)n1 [Example 211]"
  inhibition at 1 µM: "≥ 75%"
- Molecule: "CS(=O)(=O)Nc1ccn(C(=O)N2CCN(Cc3ccc(C(F)(F)F)cc3N3CCC(c4nnn[nH]4)CC3)CC2)n1 [Example 240]"
  inhibition at 1 µM: "≥ 75%"
- Molecule: "CC(=O)Nc1ccn(C(=O)N2CCN(Cc3ccc(Cl)cc3N3CCN(C(C)=O)CC3)CC2)n1 [Example 53]"
  inhibition at 1 µM: "≥ 75%"
- Molecule: "CS(=O)(=O)Nc1ccn(C(=O)N2CCN(Cc3cccc(C(F)(F)F)c3N3CCC(F)CC3)CC2)n1 [Example 273]"
  inhibition at 1 µM: "≥ 75%"
- Molecule: "CS(=O)(=O)Nc1ccn(C(=O)N2CCN(Cc3ccc(Cl)cc3N3CCCCC3)CC2)n1 [Example 128]"
  inhibition at 1 µM: "≥ 75%"
- Molecule: "O=C(CO)Nc1ccn(C(=O)N2CCN(Cc3cccc(Oc4ccccc4)c3)CC2)n1 [Example 92]"
  inhibition at 1 µM: "≥ 75%"
- Molecule: "CC(=O)N(C)c1ccn(C(=O)N2CCN(Cc3ccc(C(F)(F)F)cc3N3CCCC3)CC2)n1 [Example 2]"
  inhibition at 1 µM: "≥ 75%"
- Molecule: "CC(=O)N1CCC2(CC1)CCN(c1cc(C(F)(F)F)ccc1CN1CCN(C(=O)n3ccc(NS(C)(=O)=O)n3)CC1)C2 [Example 232]"
  inhibition at 1 µM: "≥ 75%"
- Molecule: "CC(=O)Nc1ccn(C(=O)N2CCC3(CCCN3Cc3ccc(Cl)c(C)c3)CC2)n1 [Example 94]"
  inhibition at 1 µM: "≥ 75%"
- Molecule: "CS(=O)(=O)Nc1ccn(C(=O)N2CCN(Cc3ccc(C(F)(F)F)cc3N3CCN(C(=O)N4CCC4)CC3)CC2)n1 [Example 187]"
  inhibition at 1 µM: "≥ 75%"
- Molecule: "CS(=O)(=O)Nc1ccn(C(=O)N2CCC3(CCCN3Cc3cccc(Cl)c3)CC2)n1 [Example 148]"
  inhibition at 1 µM: "0 to 25%"
- Molecule: "CC(=O)N1CCC2(CC1)CCN(c1cc(CN3CCN(C(=O)n4ccc(NS(C)(=O)=O)n4)CC3)ccc1Cl)C2 [Example 216]"
  inhibition at 1 µM: "≥ 75%"
- Molecule: "CC(=O)Nc1ccn(C(=O)N2CCN(Cc3ccc(C(F)(F)F)cc3N3CCN4CCC[C@@H]4C3)CC2)n1 [Example 268]"
  inhibition at 1 µM: "≥ 75%"
- Molecule: "CS(=O)(=O)Nc1ccn(C(=O)N2CCN(Cc3cc(Cl)cc(C(F)(F)F)c3)CC2)n1 [Example 176]"
  inhibition at 1 µM: "≥ 75%"
- Molecule: "CS(=O)(=O)Nc1ccn(C(=O)N2CCN(Cc3ccc(C(F)(F)F)cc3N3CC4COCC4C3)CC2)n1 (stereo not shown) [Example 205]"
  inhibition at 1 µM: "≥ 75%"
- Molecule: "Cn1ncc2cc(CN3CCN(C(=O)n4ccc(NS(C)(=O)=O)n4)CC3)ccc21 [Example 184]"
  inhibition at 1 µM: "25 to 50%"
- Molecule: "CS(=O)(=O)Nc1ccn(C(=O)N2CCN(Cc3ccc(Cl)cc3N3CCC4(CC3)CN(S(C)(=O)=O)C4)CC2)n1 [Example 230]"
  inhibition at 1 µM: "≥ 75%"
- Molecule: "CS(=O)(=O)Nc1ccn(C(=O)N2CCC3(CCCN3Cc3cc(N4CCC(C(=O)O)CC4)cc(C(F)(F)F)c3)CC2)n1 [Example 246]"
  inhibition at 1 µM: "0 to 25%"
- Molecule: "CC(=O)Nc1ccn(C(=O)N2CCN(Cc3ccc(C(F)(F)F)cc3N3CCC(C(N)=O)CC3)CC2)n1 [Example 274]"
  inhibition at 1 µM: "≥ 75%"
- Molecule: "CC(=O)Nc1ccn(C(=O)N2CCC3(CCCN3Cc3ccc4c(ccn4C)c3)CC2)n1 [Example 185]"
  inhibition at 1 µM: "≥ 75%"
- Molecule: "CC(=O)Nc1ccn(C(=O)N2CCC3(CCCN3Cc3ccc(N4CCOCC4)c(Cl)c3)CC2)n1 [Example 99]"
  inhibition at 1 µM: "≥ 75%"
- Molecule: "CS(=O)(=O)Nc1ccn(C(=O)N2CCC3(CCCN3Cc3ccc(C(F)(F)F)cc3N3CCCCC3)CC2)n1 [Example 133]"
  inhibition at 1 µM: "≥ 75%"
- Molecule: "CC(=O)Nc1ccn(C(=O)N2CCC3(CCCN3Cc3ccc(C(F)(F)F)c(C)c3)CC2)n1 [Example 93]"
  inhibition at 1 µM: "≥ 75%"
- Molecule: "Cc1c(CN2CCCC23CCN(C(=O)n2ccc(NS(C)(=O)=O)n2)CC3)cccc1N1CCOCC1 [Example 226]"
  inhibition at 1 µM: "0 to 25%"
